Each entry below carries its recorded Kp uu.
- assayText: Ratio of unbound drug concentration in brain to plasma of mouse at 5 mg/kg
- Type: ADME, organism-based
- conditionDescription: brain and plasma, read-out: K(p,uu,brain)
quantityKind: Kp uu

{"columns": ["cpdSmiles", "testResult"],
 "data": [
  ["CCc1nc(-c2cnc(N)c(C(F)(F)F)c2)c2ccc(C3CCN(C)CC3)cn12", 0.18],
  ["CCc1nc(-c2cnc(N)c(OC(F)(F)F)c2)c2ccc([C@H]3COCCN3C)cn12", 0.17],
  ["CCn1nc(-c2cnc(N)c(OC(F)(F)F)c2)c2ccn(C3COC3)c(=O)c21", 0.5],
  ["CCn1nc(-c2cnc(N)c(OC(F)F)c2)c2ccn([C@H]3CCOC[C@H]3OC3CC3)c(=O)c21", 0.15],
  ["CCn1nc(-c2cnc(N)c(OC(F)(F)F)c2)c2ccn([C@H]3CCOC[C@H]3OC3CC3)c(=O)c21", 0.22],
  ["CCn1nc(-c2cnc(N)c(OC(F)(F)F)c2)c2ccc([C@H]3COCCN3C)cc21", 0.42],
  ["Nc1ncc(-c2nn(C3CC3)c3c(=O)n(C4CCOCC4)ccc23)cc1OC(F)(F)F", 0.31],
  ["CCc1nc(-c2cnc(N)c(OC(F)F)c2)c2ccc([C@H]3COCCN3C)cn12", 0.14],
  ["CCn1nc(-c2cnc(N)c(OC(F)(F)F)c2)c2ccn(C3CCN(C)CC3)c(=O)c21", 0.38],
  ["CCn1nc(-c2cnc(N)c(OC(F)(F)F)c2)c2ccn(C3CCOCC3)c(=O)c21", 0.43],
  ["CCn1nc(-c2cnc(N)c(OC(F)(F)F)c2)c2ccn([C@@H]3CCCOCC3)c(=O)c21", 0.29],
  ["CCc1nc(-c2cnc(N)c(C(F)(F)F)c2)c2ccc([C@H]3COCCN3C)cn12", 0.17],
  ["CCn1nc(-c2cnc(N)c(C(F)(F)F)c2)c2ccn([C@@H]3CCOC[C@@H]3OC3CC3)c(=O)c21", 0.24],
  ["CCn1nc(-c2cnc(N)c(OC(F)(F)F)c2)c2ccn(C3CCN(C4COC4)CC3)c(=O)c21", 0.15],
  ["CCn1nc(-c2cnc(N)c(OC(F)(F)F)c2)c2ccn([C@@H](C)C3CC3)c(=O)c21", 0.38],
  ["CCn1nc(-c2cnc(N)c(OC(F)F)c2)c2ccn([C@H]3CCOC[C@H]3OC(F)(F)F)c(=O)c21", 0.5],
  ["CCn1nc(-c2cnc(N)c(OC(F)(F)F)c2)c2ccn([C@@H]3CCOC[C@@H]3OC)c(=O)c21", 0.41],
  ["CCn1nc(-c2cnc(N)c(OC(F)(F)F)c2)c2ccn([C@@H]3CCOC[C@H]3OC)c(=O)c21", 0.43]
]}

---

- assayText: Oral bioavailability in dog
- Format: ADME, organism-based, Canis lupus familiaris
- conditionDescription: in vivo

{"columns": ["cpdSmiles", "unitSpec", "bioavailability"],
 "data": [
  ["CCn1nc(-c2cnc(N)c(OC(F)F)c2)c2ccn([C@@H]3CCC(F)(F)C[C@@H]3OC)c(=O)c21", "%", 81]
]}

---

- assayText: Volume of distribution at steady state in IV-dosed rat
- Format: ADME
- conditionDescription: in vivo, read-out: Vdss
quantityKind: Vd (L/kg)

{"columns": ["cpdSmiles", "testResult"],
 "data": [
  ["CCn1nc(-c2cnc(N)c(OC(F)F)c2)c2ccn([C@@H]3CCC(F)(F)C[C@@H]3OC)c(=O)c21", 4.3]
]}

---

- assayText: Intrinsic clearance in human liver microsomes
- Assay type: ADME, Microsome
- conditionDescription: read-out: CLH
Everything with microsomal CLint lower than 10 µL/min/mg is Not met; everything else, including exactly 10 µL/min/mg, is Met.

{"columns": ["cpdSmiles", "assignedCategory"],
 "data": [
  ["CCn1nc(-c2cnc(N)c(OC(F)(F)F)c2)c2ccn(C3CCN(C4COC4)CC3)c(=O)c21", "Not met"],
  ["CCn1nc(-c2cnc(N)c(OC(F)(F)F)c2)c2ccn([C@@H](C)C3CC3)c(=O)c21", "Not met"],
  ["CCn1nc(-c2cnc(N)c(OC(F)(F)F)c2)c2ccn([C@@H]3CCCOCC3)c(=O)c21", "Met"],
  ["CCc1nc(-c2cnc(N)c(C(F)(F)F)c2)c2ccc(C3CCN(C)CC3)cn12", "Not met"],
  ["CCn1nc(-c2cnc(N)c(OC(F)(F)F)c2)c2ccn([C@H]3CCOC[C@H]3OC3CC3)c(=O)c21", "Met"],
  ["CCn1nc(-c2cnc(N)c(OC(F)(F)F)c2)c2ccn([C@@H]3CCOC[C@H]3OC)c(=O)c21", "Not met"],
  ["Nc1ncc(-c2nn(C3CC3)c3c(=O)n(C4CCOCC4)ccc23)cc1OC(F)(F)F", "Met"],
  ["CCc1nc(-c2cnc(N)c(OC(F)F)c2)c2ccc([C@H]3COCCN3C)cn12", "Not met"],
  ["CCn1nc(-c2cnc(N)c(OC(F)(F)F)c2)c2ccn([C@@H]3CCOC[C@@H]3OC)c(=O)c21", "Met"],
  ["CCc1nc(-c2cnc(N)c(OC(F)(F)F)c2)c2ccc([C@H]3COCCN3C)cn12", "Not met"],
  ["CCn1nc(-c2cnc(N)c(OC(F)(F)F)c2)c2ccn(C3COC3)c(=O)c21", "Not met"],
  ["CCn1nc(-c2cnc(N)c(OC(F)(F)F)c2)c2ccn([C@@H]3CCOC3)c(=O)c21", "Met"],
  ["CCn1nc(-c2cnc(N)c(OC(F)F)c2)c2ccn([C@@H]3CCC(F)(F)C[C@@H]3OC)c(=O)c21", "Not met"],
  ["CCc1nc(-c2cnc(N)c(C(F)(F)F)c2)c2ccc([C@H]3COCCN3C)cn12", "Met"],
  ["CCn1nc(-c2cnc(N)c(OC(F)(F)F)c2)c2ccn([C@H]3CCN(C)C[C@H]3OC(F)(F)F)c(=O)c21", "Met"],
  ["CCc1nc(-c2cnc(N)c(C(F)(F)F)c2)c2ccc(C3CCOCC3)cn12", "Met"],
  ["CCn1nc(-c2cnc(N)c(OC(F)(F)F)c2)c2ccn(C3CCN(C)CC3)c(=O)c21", "Not met"],
  ["CCn1nc(-c2cnc(N)c(OC(F)(F)F)c2)c2ccn([C@H]3CC4(CC4)OC[C@H]3OC)c(=O)c21", "Not met"],
  ["CCn1nc(-c2cnc(N)c(OC(F)(F)F)c2)c2ccn(C3CCOCC3)c(=O)c21", "Not met"]
]}

---

- targetDesc: Voltage-gated inwardly rectifying potassium channel KCNH2 (Homo sapiens)
- Sequence (Q12809 whole entry): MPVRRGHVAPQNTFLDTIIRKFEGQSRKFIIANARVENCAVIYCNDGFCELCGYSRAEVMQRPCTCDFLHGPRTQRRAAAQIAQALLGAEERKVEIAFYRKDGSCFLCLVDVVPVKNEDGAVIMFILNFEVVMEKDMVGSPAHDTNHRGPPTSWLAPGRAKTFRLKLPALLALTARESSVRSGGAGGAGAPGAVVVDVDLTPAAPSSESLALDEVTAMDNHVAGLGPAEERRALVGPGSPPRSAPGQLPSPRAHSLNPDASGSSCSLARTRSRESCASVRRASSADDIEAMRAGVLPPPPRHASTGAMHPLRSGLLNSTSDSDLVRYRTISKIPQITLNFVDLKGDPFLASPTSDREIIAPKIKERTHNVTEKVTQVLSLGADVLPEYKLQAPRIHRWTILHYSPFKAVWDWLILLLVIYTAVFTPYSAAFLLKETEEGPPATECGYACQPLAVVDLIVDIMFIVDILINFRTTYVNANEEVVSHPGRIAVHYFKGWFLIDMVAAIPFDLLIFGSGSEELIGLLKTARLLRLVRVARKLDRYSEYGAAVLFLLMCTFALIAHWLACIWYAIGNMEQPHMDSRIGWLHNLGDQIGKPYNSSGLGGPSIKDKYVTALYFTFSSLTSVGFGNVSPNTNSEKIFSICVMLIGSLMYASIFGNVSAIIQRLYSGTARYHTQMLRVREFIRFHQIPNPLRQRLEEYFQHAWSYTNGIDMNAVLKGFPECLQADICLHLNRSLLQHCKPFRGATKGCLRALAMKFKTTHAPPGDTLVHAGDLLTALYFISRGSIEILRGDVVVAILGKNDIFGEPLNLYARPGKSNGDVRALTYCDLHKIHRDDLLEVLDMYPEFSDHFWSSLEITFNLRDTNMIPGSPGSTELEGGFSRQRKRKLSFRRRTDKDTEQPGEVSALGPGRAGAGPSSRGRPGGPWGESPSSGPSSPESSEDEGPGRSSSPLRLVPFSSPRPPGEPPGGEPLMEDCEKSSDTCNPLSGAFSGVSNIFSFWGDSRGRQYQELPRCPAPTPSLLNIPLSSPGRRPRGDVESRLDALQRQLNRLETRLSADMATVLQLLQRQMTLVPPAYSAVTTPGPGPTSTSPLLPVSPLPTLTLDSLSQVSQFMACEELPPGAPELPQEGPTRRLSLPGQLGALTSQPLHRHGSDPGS
- assayText: Inhibition of hERG by patch-clamp method
- Assay type: toxicity
pIC50: −log10 of the molar value.
Lab note: class by pIC50, see I (below 5), II (5 to below 6), III (6 or more)

{"columns": ["cpdSmiles", "targetDesc", "assignedCategory"],
 "data": [
  ["CCc1nc(-c2cnc(N)c(C(F)(F)F)c2)c2ccc(CN3CCOCC3)cn12", "Voltage-gated inwardly rectifying potassium channel KCNH2 (Homo sapiens)", "II"],
  ["CCc1nc(-c2cnc(N)c(OC(F)(F)F)c2)c2ccc([C@H]3COCCN3C)cn12", "Voltage-gated inwardly rectifying potassium channel KCNH2 (Homo sapiens)", "I"],
  ["CCc1nc(-c2cnc(N)c(C(F)(F)F)c2)c2ccc(C3(F)CCN(C)CC3)cn12", "Voltage-gated inwardly rectifying potassium channel KCNH2 (Homo sapiens)", "III"],
  ["CCc1nc(-c2cnc(N)c(C(F)(F)F)c2)c2ccc([C@H]3CN(C)CCO3)cn12", "Voltage-gated inwardly rectifying potassium channel KCNH2 (Homo sapiens)", "II"],
  ["CCc1nc(-c2cnc(N)c(OC(F)(F)F)c2)c2ccc([C@H]3COCC4(CC4)N3C)cn12", "Voltage-gated inwardly rectifying potassium channel KCNH2 (Homo sapiens)", "I"],
  ["CCc1nc(-c2cnc(N)c(C(F)(F)F)c2)c2ccc(C3CCN(C)CC3)cn12", "Voltage-gated inwardly rectifying potassium channel KCNH2 (Homo sapiens)", "III"],
  ["CCc1nc(-c2cnc(N)c(OC(F)(F)F)c2)c2ccc(C3(N4CCOCC4)CC3)cn12", "Voltage-gated inwardly rectifying potassium channel KCNH2 (Homo sapiens)", "I"]
]}

---

- assayText: In vivo inhibition of DLK in mouse cerebellum at 3 to 75 mg/kg, po measured after 2 hrs
- Format: functional, organism-based

{"columns": ["cpdSmiles", "IC50 [nM]"],
 "data": [
  ["CCn1nc(-c2cnc(N)c(OC(F)F)c2)c2ccn([C@@H]3CCC(F)(F)C[C@@H]3OC)c(=O)c21", 31]
]}

---

- targetDesc: CYP3A4 (Homo sapiens, UniProt P08684)
- Sequence (P08684 whole entry): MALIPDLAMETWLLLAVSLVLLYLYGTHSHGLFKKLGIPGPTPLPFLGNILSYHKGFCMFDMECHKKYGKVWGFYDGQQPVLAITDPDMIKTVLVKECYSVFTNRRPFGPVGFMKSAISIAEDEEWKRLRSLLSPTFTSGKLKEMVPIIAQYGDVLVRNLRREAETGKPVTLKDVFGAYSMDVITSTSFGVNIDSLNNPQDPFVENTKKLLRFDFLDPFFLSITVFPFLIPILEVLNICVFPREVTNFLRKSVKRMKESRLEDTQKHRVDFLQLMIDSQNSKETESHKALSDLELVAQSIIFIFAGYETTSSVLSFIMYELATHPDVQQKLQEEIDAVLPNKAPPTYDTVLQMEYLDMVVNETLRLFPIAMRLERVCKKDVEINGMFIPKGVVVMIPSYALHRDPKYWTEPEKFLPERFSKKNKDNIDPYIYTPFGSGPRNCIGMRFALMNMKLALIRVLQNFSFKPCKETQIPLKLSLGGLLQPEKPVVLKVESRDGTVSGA
- assayText: Time dependent inhibition of CYP3A4 (unknown origin) at 30 uM incubated for 30 mins relative to control
- Format: ADME
- conditionDescription: read-out: TDI
Each entry below carries its recorded inhibition at 0.5 h, 30 µM.
quantityKind: inhibition at 0.5 h, 30 µM (%)

{"columns": ["cpdSmiles", "targetDesc", "testResult"],
 "data": [
  ["CCn1nc(-c2cnc(N)c(OC(F)(F)F)c2)c2ccc([C@H]3COCCN3C)nc21", "CYP3A4 (Homo sapiens, UniProt P08684)", 14],
  ["CCn1nc(-c2cnc(N)c(OC(F)F)c2)c2ccn([C@@H]3CCC(F)(F)C[C@@H]3OC)c(=O)c21", "CYP3A4 (Homo sapiens, UniProt P08684)", 27.5],
  ["CCc1nc(-c2cnc(N)c(OC(F)(F)F)c2)c2ccc([C@H]3COCC4(CC4)N3C)cn12", "CYP3A4 (Homo sapiens, UniProt P08684)", 67],
  ["CCc1nc(-c2cnc(N)c(OC(F)(F)F)c2)c2ccc([C@H]3CC(=O)N(C)C3)cn12", "CYP3A4 (Homo sapiens, UniProt P08684)", 81],
  ["CN1CCOC[C@H]1c1ccc2c(-c3cnc(N)c(OC(F)(F)F)c3)nc(C(F)(F)F)n2c1", "CYP3A4 (Homo sapiens, UniProt P08684)", 33],
  ["CCc1nc(-c2cnc(N)c(OC(F)(F)F)c2)c2cc(C)c([C@H]3COCCN3C)cn12", "CYP3A4 (Homo sapiens, UniProt P08684)", 70],
  ["CCc1nc(-c2cnc(N)c(OC(F)(F)F)c2)c2cc(Cl)c([C@H]3COCCN3C)cn12", "CYP3A4 (Homo sapiens, UniProt P08684)", 67],
  ["CCn1nc(-c2cnc(N)c(OC(F)(F)F)c2)c2ccc([C@H]3COCCN3C)cc21", "CYP3A4 (Homo sapiens, UniProt P08684)", 15],
  ["CCn1nc(-c2cnc(N)c(OC(F)(F)F)c2)c2ccn(C3CCOCC3)c(=O)c21", "CYP3A4 (Homo sapiens, UniProt P08684)", 18]
]}
